Hey, just so you know, these numbers are from ChEMBL document CHEMBL4680217.

biological target: von Hippel-Lindau disease tumor suppressor/Apoptosis regulator Bcl-2 (Homo sapiens) (UniProt P10415+P40337); experiment: Protac activity at VHL/BCL2 in human MOLT-4 cells assessed as induction of BCL2 degradation at 100 nM measured after 16 hrs by immunoblotting analysis; type: cell-based
Sequence (P10415 whole entry, looked up): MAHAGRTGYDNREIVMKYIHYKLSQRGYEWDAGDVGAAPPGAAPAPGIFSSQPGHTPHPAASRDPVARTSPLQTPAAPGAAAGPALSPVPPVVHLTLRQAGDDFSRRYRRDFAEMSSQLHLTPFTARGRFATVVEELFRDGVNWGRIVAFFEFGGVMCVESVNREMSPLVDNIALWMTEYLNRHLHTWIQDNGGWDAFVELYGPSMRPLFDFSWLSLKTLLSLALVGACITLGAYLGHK
Sequence (P40337 whole entry, looked up): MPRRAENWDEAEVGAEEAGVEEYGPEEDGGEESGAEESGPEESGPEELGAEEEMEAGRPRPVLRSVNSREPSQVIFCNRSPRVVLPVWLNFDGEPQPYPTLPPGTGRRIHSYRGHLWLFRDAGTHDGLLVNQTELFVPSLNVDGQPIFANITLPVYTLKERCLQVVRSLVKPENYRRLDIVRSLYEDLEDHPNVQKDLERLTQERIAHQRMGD
Calls of active or inactive are those of the source. The calls are words filed in the database; no cut-off is given here.

>  <test.smiles>
Cc1ncsc1-c1ccc([C@H](C)NC(=O)[C@@H]2C[C@@H](O)CN2C(=O)[C@@H](NC(=O)COCCOCCN(C)CC[C@H](CSc2ccccc2)Nc2ccc(S(=O)(=O)NC(=O)c3ccc(N4CCN(CC5=C(c6ccc(Cl)cc6)CCC(C)(C)C5)CC4)cc3)cc2S(=O)(=O)C(F)(F)F)C(C)(C)C)cc1

>  <Activity>
inactive

$$$$
>  <test.smiles>
Cc1ncsc1-c1ccc([C@H](C)NC(=O)[C@@H]2C[C@@H](O)CN2C(=O)[C@@H](NC(=O)CCCCCCCN(C)CC[C@H](CSc2ccccc2)Nc2ccc(S(=O)(=O)NC(=O)c3ccc(N4CCN(CC5=C(c6ccc(Cl)cc6)CCC(C)(C)C5)CC4)cc3)cc2S(=O)(=O)C(F)(F)F)C(C)(C)C)cc1

>  <Activity>
inactive

$$$$
